The measured values listed here are drawn from ChEMBL document CHEMBL3526049.

Assay: Clearance in MRP2 knockout Sprague-Dawley rat at 5 mg/kg, iv by LC-MS/MS analysis
Format: ADME, organism-based
Set-up: dose 5 mg/kg, route intravenous
Details: in vivo

{"columns": ["structure_notation", "clearance, mL/min/kg"],
 "data": [
  ["O=C(O)c1cc(/N=N/c2ccc(S(=O)(=O)Nc3ccccn3)cc2)ccc1O", 22]
]}

* * *

Experiment: AUC (infinity) in BCRP knockout Sprague-Dawley rat at 5 mg/kg, iv by LC-MS/MS analysis
Assay type: ADME, organism-based
Set-up: time infinity, dose 5 mg/kg, route intravenous
Settings: plasma
experimental_endpoint: AUC(0-inf) (ng·h/mL)

{"columns": ["structure_notation", "observed_measurement"],
 "data": [
  ["O=C(O)c1cc(/N=N/c2ccc(S(=O)(=O)Nc3ccccn3)cc2)ccc1O", 10700]
]}
